assay text: Half life in dog at 1 mg/kg, iv
Assay type: ADME, organism-based, Canis lupus familiaris
Set-up: dose 1 mg/kg, route intravenous
study conditions: in vivo
readout type: half-life (h)

[[record]]
molecule = "COCCCOc1cc(C[C@@H](C[C@H](N)[C@@H](O)C[C@H](C(=O)NCC(C)(C)C(N)=O)C(C)C)C(C)C)ccc1OC.COCCCOc1cc(C[C@@H](C[C@H](N)[C@@H](O)C[C@H](C(=O)NCC(C)(C)C(N)=O)C(C)C)C(C)C)ccc1OC.O=C(O)/C=C/C(=O)O [ALISKIREN FUMARATE]"
result = 16.3


###

assay text: Volume of distribution at steady state in rat at 1.6 mg/kg, iv and 8 mg/kg, po
Assay type: ADME, organism-based
study conditions: in vivo, read-out: Vdss
readout type: Vd (L/kg)

[[record]]
mol = "CNC[C@H](CC1CCCCC1)NC(=O)N1CCC[C@@H]([C@@H](OCCNC(=O)OC)c2cccc(Cl)c2)C1.O=C(O)/C=C/C(=O)O"
readout_type = "Vd"
result = 19


###

assay text: Volume of distribution at steady state in dog at 0.5 mg/kg, iv and 1 mg/kg, po
Type: ADME, organism-based, Canis lupus familiaris
study conditions: in vivo, read-out: Vdss
readout type: Vd (L/kg)

[[record]]
mol = "CN[C@H](CNC(=O)N1CCC[C@@H]([C@@H](OCCNC(=O)OC)c2cccc(Cl)c2)C1)C[C@H]1CCCOC1.O=C(O)/C=C/C(=O)O"
readout_type = "Vd"
result = 4


###

assay text: Clearance in rat at […], iv
Format: ADME, organism-based
Parameters: dose 1.5 mg/kg, route intravenous
study conditions: in vivo
readout type: clearance (mL/min/kg)

[[record]]
mol = "CNC[C@H](C[C@H]1CCCOC1)NC(=O)N1CCC[C@@H]([C@@H](OCCNC(=O)OC)c2cccc(Cl)c2)C1.O=C(O)/C=C/C(=O)O"
result = 48


###

measured on: Renin (Homo sapiens)
Sequence (P00797 whole entry): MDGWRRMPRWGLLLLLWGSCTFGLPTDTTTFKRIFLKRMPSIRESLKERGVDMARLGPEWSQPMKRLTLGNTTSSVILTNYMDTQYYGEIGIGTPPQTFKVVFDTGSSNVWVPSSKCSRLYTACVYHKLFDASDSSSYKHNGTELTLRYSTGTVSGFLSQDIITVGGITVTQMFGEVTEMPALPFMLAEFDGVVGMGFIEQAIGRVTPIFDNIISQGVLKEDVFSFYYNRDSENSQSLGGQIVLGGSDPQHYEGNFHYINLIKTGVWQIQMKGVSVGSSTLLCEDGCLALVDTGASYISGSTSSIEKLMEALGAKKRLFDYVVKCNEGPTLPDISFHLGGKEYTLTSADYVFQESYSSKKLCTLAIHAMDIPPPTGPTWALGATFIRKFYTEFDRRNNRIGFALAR
assay text: Inhibition of renin in human plasma assessed as formation of angiotensin1 product after 90 mins by competitive radioimmunoassay
pIC50: −log10 of the molar value.
Would you mind labelling by pIC50? At or over 8 is met, under is not met.

[[record]]
compound = "COCCCC[C@@](O)(c1cccc(Cl)c1F)[C@@H]1CCCN(C(=O)NC[C@@H](N)CC2CCCCC2)C1"
class_label = "not met"

[[record]]
compound = "CNC[C@@H](NC(=O)N1CCC[C@@H]([C@@H](OCCNC(=O)OC)c2cccc(Cl)c2)C1)[C@@H](O)C1CCCCC1"
class_label = "met"

[[record]]
compound = "CNC[C@H](C[C@@H]1CCCOC1)NC(=O)N1CCC[C@@H]([C@@H](OCCNC(=O)OC)c2cccc(Cl)c2)C1"
class_label = "met"

[[record]]
compound = "CN[C@H](CNC(=O)N1CCC[C@@H]([C@@H](OCCNC(=O)OC)c2cccc(Cl)c2)C1)C[C@H]1CCCOC1 [VTP-27999]"
class_label = "met"

[[record]]
compound = "CNC[C@H](C[C@H]1CCCOC1)NC(=O)N1CCC[C@@H]([C@@H](OCCNC(=O)OC)c2cccc(Cl)c2)C1"
class_label = "met"


###

assay text: Half life in rat at 2 mg/kg, iv
Format: ADME, organism-based
Parameters: dose 2 mg/kg, route intravenous
study conditions: in vivo
Measured half-life of individual entries
readout type: half-life (h)

[[record]]
compound = "COCCCOc1cc(C[C@@H](C[C@H](N)[C@@H](O)C[C@H](C(=O)NCC(C)(C)C(N)=O)C(C)C)C(C)C)ccc1OC.COCCCOc1cc(C[C@@H](C[C@H](N)[C@@H](O)C[C@H](C(=O)NCC(C)(C)C(N)=O)C(C)C)C(C)C)ccc1OC.O=C(O)/C=C/C(=O)O [ALISKIREN FUMARATE]"
readout_type = "half-life"
result = 39.6

[[record]]
compound = "CN[C@H](CNC(=O)N1CCC[C@@H]([C@@H](OCCNC(=O)OC)c2cccc(Cl)c2)C1)C[C@H]1CCCOC1.O=C(O)/C=C/C(=O)O"
readout_type = "half-life"
result = 7.3


###

Below are molecules with their pIC50 as measured on Cytochrome P450 3A4 (Homo sapiens, UniProt P08684).
Sequence (P08684 whole entry): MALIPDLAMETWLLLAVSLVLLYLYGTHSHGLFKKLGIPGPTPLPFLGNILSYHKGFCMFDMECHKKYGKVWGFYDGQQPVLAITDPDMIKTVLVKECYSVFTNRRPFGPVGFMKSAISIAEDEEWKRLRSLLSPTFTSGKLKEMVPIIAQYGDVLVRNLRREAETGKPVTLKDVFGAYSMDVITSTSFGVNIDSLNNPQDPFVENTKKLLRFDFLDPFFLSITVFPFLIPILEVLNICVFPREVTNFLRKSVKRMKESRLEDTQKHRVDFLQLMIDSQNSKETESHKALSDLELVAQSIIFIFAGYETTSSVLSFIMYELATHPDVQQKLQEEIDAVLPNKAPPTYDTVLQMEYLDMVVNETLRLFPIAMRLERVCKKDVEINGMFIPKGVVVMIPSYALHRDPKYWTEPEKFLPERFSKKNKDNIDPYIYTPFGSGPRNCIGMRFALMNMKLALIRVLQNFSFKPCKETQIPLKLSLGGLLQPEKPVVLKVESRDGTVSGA
pIC50: −log10 of the molar value.
readout type: pIC50

[[record]]
mol = "COCCCC[C@@](O)(c1cccc(Cl)c1F)[C@@H]1CCCN(C(=O)NC[C@@H](N)CC2CCCCC2)C1"
sign_qualifier = "="
result = 5.54

[[record]]
mol = "CNC[C@H](CC1CCOCC1)NC(=O)N1CCC[C@@H]([C@@H](OCCNC(=O)OC)c2cccc(Cl)c2)C1"
sign_qualifier = "<"
result = 4.52

[[record]]
mol = "CNC[C@H](C[C@H]1CCCOC1)NC(=O)N1CCC[C@@H]([C@@H](OCCNC(=O)OC)c2cccc(Cl)c2)C1"
sign_qualifier = "="
result = 4.55

[[record]]
mol = "CNC[C@H](CC1CCCCC1)NC(=O)N1CCC[C@@H]([C@@H](OCCNC(=O)OC)c2cccc(Cl)c2)C1"
sign_qualifier = "="
result = 5.34


###

assay text: Fraction unbound in dog plasma
Assay type: ADME, cell-free, Canis lupus familiaris
readout type: fraction unbound

[[record]]
mol = "CN[C@H](CNC(=O)N1CCC[C@@H]([C@@H](OCCNC(=O)OC)c2cccc(Cl)c2)C1)C[C@H]1CCCOC1"
readout_type = "fraction unbound"
result = 0.22


###

assay text: Volume of distribution at steady state in cynomolgus monkey at 1 mg/kg, iv and 2 mg/kg, po
Assay type: ADME, organism-based, Macaca fascicularis
study conditions: in vivo, read-out: Vdss
Reported Vd values follow for various compounds
readout type: Vd (L/kg)

[[record]]
mol = "CN[C@H](CNC(=O)N1CCC[C@@H]([C@@H](OCCNC(=O)OC)c2cccc(Cl)c2)C1)C[C@H]1CCCOC1.O=C(O)/C=C/C(=O)O"
readout_type = "Vd"
result = 4.7

[[record]]
mol = "CNC[C@H](C[C@H]1CCCOC1)NC(=O)N1CCC[C@@H]([C@@H](OCCNC(=O)OC)c2cccc(Cl)c2)C1.O=C(O)/C=C/C(=O)O"
readout_type = "Vd"
result = 5


###

assay text: AUC (0 to t) in cynomolgus monkey at 1 mg/kg, po
Format: ADME, organism-based, Macaca fascicularis
Design: dose 1 mg/kg, route oral
study conditions: plasma
readout type: AUC(0-t) (ng·h/mL)

[[record]]
mol = "CNC[C@H](CC1CCCCC1)NC(=O)N1CCC[C@@H]([C@@H](OCCNC(=O)OC)c2cccc(Cl)c2)C1.O=C(O)/C=C/C(=O)O"
units_label = "ng·h/mL"
result = 130


###

assay text: Half life in rat at 0.8 mg/kg, iv
Type: ADME, organism-based
Parameters: dose 0.8 mg/kg, route intravenous
study conditions: in vivo
readout type: half-life (h)

[[record]]
mol = "COCCCC[C@@](O)(c1cccc(Cl)c1F)[C@@H]1CCCN(C(=O)NC[C@@H](N)CC2CCCCC2)C1.O=C(O)/C=C/C(=O)O"
units_label = "h"
result = 51


###

assay text: AUC (0 to t) in dog at 1 mg/kg, po
Type: ADME, organism-based, Canis lupus familiaris
Parameters: dose 1 mg/kg, route oral
study conditions: plasma
# Lookup of reported AUC(0-t) keyed by entry
readout type: AUC(0-t) (ng·h/mL)

[[record]]
compound = "COCCCOc1cc(C[C@@H](C[C@H](N)[C@@H](O)C[C@H](C(=O)NCC(C)(C)C(N)=O)C(C)C)C(C)C)ccc1OC.COCCCOc1cc(C[C@@H](C[C@H](N)[C@@H](O)C[C@H](C(=O)NCC(C)(C)C(N)=O)C(C)C)C(C)C)ccc1OC.O=C(O)/C=C/C(=O)O [ALISKIREN FUMARATE]"
result = 149

[[record]]
compound = "CN[C@H](CNC(=O)N1CCC[C@@H]([C@@H](OCCNC(=O)OC)c2cccc(Cl)c2)C1)C[C@H]1CCCOC1.O=C(O)/C=C/C(=O)O"
result = 484

